Assay: SPR (Biacore) Protein A mAb capture, Compound A injected
Settings: 37° C., binding to Compound A, apparent, for rank ordering only
endpoint: Kd (s⁻¹)

1. 26D5-295-G07-mAb: human IgG1f/kappa mAb; VH SEQ ID NO: 69, VL SEQ ID NO: 88 (antibody, V domains shown) VH: EVQLVESGGGLIQPGGSLRLSCAASGFTVSSNYMSWVRQAPGKGLEWVSFIYPGGRTYYADSVKGRFTISRDNSKNTLYLQMNSLRAEDTAVYYCARGGFGGGDYWGQGTLVTVSS VL: DIQMTQSPSSVSASVGDRVTITCRASQGISSNLAWYQQKPGKAPKLLIYAASSLQSGVPSRFSGSGSGTDFTLTISSLQPEDFATYYCQQANSFPLTFGGGTKVEIK :: 0.00043

Reference source: patent US12065505B2
